System: ATP;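 also: ATP exposure 15 min at 22 °C before imaging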
Experiment: switch fluorescence ratio, 500 uM ATP over buffer (Cy3 cluster intensity, sum of 5 cycles each) (fold (ratio)); higher = stronger signal-on switching upon ATP binding; sequences stand for … in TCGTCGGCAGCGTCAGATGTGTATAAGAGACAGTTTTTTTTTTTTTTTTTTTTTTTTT…TC
Settings: aptamer strand: ATP DNA aptamer (quencher-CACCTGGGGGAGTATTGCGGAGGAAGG + anchor), 100 nM annealed; ATP concentration: 500 uM
observationType: switch fluorescence ratio
Give bare numbers.

INSERT INTO results (querysequence, measvalue) VALUES
  ('GGCGATTTTT', 1.01),
  ('TGCCCATGGG', 0.996),
  ('AGGGGGAAGC', 1.02);

Batch request: switch fluorescence ratio for each of the following sequences.
1. GAAGGGATGG
2. TGATCATGCG
3. ATCGTATACC
4. ACCATTGTGA
5. ACTCAGTTGT
6. ATTGAGCGGG
7. TACGTCCCGA

1: 1.08; 2: 1; 3: 1.01; 4: 0.998; 5: 1.06; 6: 1; 7: 1.01
